Source of measurements: PubChem BioAssay AID1159580

Hi there, I'd appreciate the recorded normalized growth for every entry that follows.
Experiment: chemical genetic growth profiling, strain panel (AID 1159580);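 further: tested at 20 µM; growth read once vehicle control cultures reached saturation at 30 °C; 1 = growth at the plate median or of vehicle wells; lower values mean less growth of the strain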
Conditions: S. cerevisiae deletion strains, growth OD, locus YFR003C, strain YPI1, hits give low values
The whole screen tested about 5,500 compounds, of which about 2,000 (36%) were called active. Another 18% or so got no clear call; they are omitted. The list shows a part of the results.
// print number alone

Quote normalized growth reported for COc1ccc(OC)c(-c2ccn[nH]2)c1OCc1ccccc1 please.
0.993

Quick one: give measured normalized growth for O=C(Nc1cccc2ccccc12)c1ccccc1O
0.854

Using known records, supply normalized growth for COc1ccc(CC2CCC(=NOC(=O)c3c(Cl)cccc3Cl)CC2)cc1 (stereo unspecified)
1.04

Give the reported value of normalized growth for this record: CS(=O)(=O)c1sc(C(=O)Sc2ccc(Cl)cc2)c2c1C=CCC2
0.881

Look up normalized growth of NNC(=O)c1csc(Cc2c(Cl)sc3ccc(Cl)cc23)n1 and report it.
0.994

Provide normalized growth value for the following molecule: Cc1ccc(S(=O)(=O)Nc2ccc(Oc3ccc(F)cc3)cc2)cc1
0.979
